assayed target: T1, TrwCR (N-terminal relaxase domain of TrwC) (UniProt Q47673 1-293)
T1 sequence: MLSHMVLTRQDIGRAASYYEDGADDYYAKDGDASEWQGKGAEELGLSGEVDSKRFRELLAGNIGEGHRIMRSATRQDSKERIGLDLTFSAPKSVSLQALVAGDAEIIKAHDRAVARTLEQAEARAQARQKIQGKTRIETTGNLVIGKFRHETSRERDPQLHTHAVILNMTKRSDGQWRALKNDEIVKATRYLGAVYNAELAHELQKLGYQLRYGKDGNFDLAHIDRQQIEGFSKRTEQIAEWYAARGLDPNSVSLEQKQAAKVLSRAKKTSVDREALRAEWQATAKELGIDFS
assay info: SDS-PAGE covalent complex; 5 mM Mg2+; Covalent complex: 15 uM oligo, 37 C 1 h, 5 mM MgCl2, 15 uM EDTA; TrwCR 10 mM Tris pH 7.6, 375 mM NaCl; MobAR 25 mM Tris pH 8.0, 225 mM NaCl; TraIR 10 mM Tris pH 7.6, 225 mM NaCl. EMSA: 50 nM oligo, 10 mM Tris pH 7.6, 100 mM NaCl, 1 mM EDTA, RT 30 min. Gel filtration: 100 mM Tris pH 7.6, 200 mM NaCl, EDTA
conditions: protein: recombinant; hairpin
reported property: binding signal
The reply must contain the numeric value and, after it, the unit.

Below, 6 binders whose answers are already recorded.
Input GGTGCGTATTGTCTATAGCGCGCACC (structured_DNA) [R388 H(14+12)] . Output binding signal: 25.5 % covalent complex

Input GGTGCGTATTGTCTATAGCCCAGCGCACC (structured_DNA) [R388 H(14+15)] . Output binding signal: 19.6 % covalent complex

Input GGTGCGTATTGTCTATAGCCCAGATCGCACC (structured_DNA) [R388 H(14+17)] . Output binding signal: 22.3 % covalent complex

Input GGTGCGTATTGTCTATAGCCGCGCACC (structured_DNA) [R388 H(14+13)] . Output binding signal: 23.3 % covalent complex

Input GGTGCGTATTGTCTATCGCACC (structured_DNA) [R388 H(14+8)] . Output binding signal: 22.4 % covalent complex

Input GGTGCGTATTGTCTATAGCCCGCGCACC (structured_DNA) [R388 H(14+14)] . Output binding signal: 26.8 % covalent complex

***
Input TATTGTCTATAGCCCACGCACCGAAAGGTGCG (structured_DNA) [R388 R(8+24)] . Output binding signal: 45.3 % covalent complex

Hey, just so you know, these numbers are from paper PMC4814116.
